molecular target: Neutrophil collagenase (Homo sapiens)
Sequence (P22894 whole entry): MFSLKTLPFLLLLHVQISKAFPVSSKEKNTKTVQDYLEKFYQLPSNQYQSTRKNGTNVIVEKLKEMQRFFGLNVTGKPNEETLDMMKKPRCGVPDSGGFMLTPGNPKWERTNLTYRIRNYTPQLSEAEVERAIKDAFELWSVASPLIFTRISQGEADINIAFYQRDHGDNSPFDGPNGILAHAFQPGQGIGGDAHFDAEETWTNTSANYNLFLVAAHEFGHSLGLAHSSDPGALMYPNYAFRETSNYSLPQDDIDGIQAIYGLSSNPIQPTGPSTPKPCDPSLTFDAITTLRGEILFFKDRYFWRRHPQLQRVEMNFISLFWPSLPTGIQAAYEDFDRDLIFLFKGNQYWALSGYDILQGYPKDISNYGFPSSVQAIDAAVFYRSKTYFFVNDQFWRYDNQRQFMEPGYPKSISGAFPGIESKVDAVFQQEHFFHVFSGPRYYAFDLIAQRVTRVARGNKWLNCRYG
pKi: −log10 of the molar value.
Quick rule: pKi of at least 8 means satisfied, below that means not satisfied.

CNC(=O)[C@H](Cc1ccccc1)NC(=O)[C@H](CCCCCOc1ccccc1)CC(=O)NO :: satisfied
CNC(=O)[C@H](Cc1ccccc1)NC(=O)[C@H](CCCC(=O)NCc1ccccc1)CC(=O)NO :: not satisfied
CNC(=O)[C@H](Cc1ccccc1)NC(=O)[C@H](CCCC(=O)NCCc1ccccc1)CC(=O)NO :: not satisfied
CNC(=O)[C@H](Cc1ccccc1)NC(=O)[C@H](CCCCOc1ccccc1)CC(=O)NO :: satisfied

Please indicate if the recorded pKi for `CNC(=O)[C@H](Cc1ccccc1)NC(=O)[C@H](CCCCCOCc1ccccc1)CC(=O)NO` meets or exceeds 8.
satisfied

Assess whether reported pKi for `CNC(=O)[C@H](Cc1ccccc1)NC(=O)[C@H](CCCCCO)CC(=O)NO` sits at 8 or higher.
satisfied

Please indicate if the recorded pKi for `CCCNC(=O)CCC[C@H](CC(=O)NO)C(=O)N[C@@H](Cc1ccccc1)C(=O)NC` meets or exceeds 8.
satisfied
